# Tested on: DU-145 prostate
# Measurement Protocol: NCI tumour cell line growth inhibition, 48 h; in the data active means GI50 below about 0.43 µM; inactive means the rest
The categories you may choose from are True for active, False for inactive

Inquiry: Dear colleague, could you share the recorded outcome for `CS(=O)(=O)c1ccc(N/N=C/c2c(-c3ccc(S(C)(=O)=O)cc3)[nH]c3ccc(F)cc23)cc1` when you have a moment?
Reply text: False

Inquiry: Hey, what did the test say about `CCOC(=O)[C@H](CSSc1ncnc2cc[nH]c12)NC(=O)[C@@H](C)c1ccc2cc(OC)ccc2c1` ?
Reply text: True

Inquiry: # fetch the recorded call for `C=C(C)C(=O)NC(N)=NC#N` here
Reply text: False

Inquiry: Called result for `CCCCCCCCN(CCCCCCCC)C(=N)c1ccnc2ccccc12`
Reply text: False

Inquiry: What call does the record list for `CC(=O)O[C@H](C[C@H](C(C)C)N(C)C(=O)[C@@H](NC(=O)[C@H]1CCCCN1C)C(C)C)c1nc(C(=O)N[C@@H](Cc2ccccc2)C[C@H](C)C(=O)O)c(C)s1` ?
Reply text: True

Inquiry: Each compound tested received a call. Report the one for `O=C1C=C(Nc2ccccc2)c2ncccc2C1=O` .
Reply text: True

Inquiry: Test call, this compound: `COc1cc2c(c(OC)c1OC)-c1ccc([O-])c(=O)cc1[C@@H](NC(C)=O)CC2.COc1cc2c(c(OC)c1OC)-c1ccc([O-])c(=O)cc1[C@@H](NC(C)=O)CC2.[Cu+2]`
Reply text: False

Inquiry: Test call, this compound: `CN1CCN(C(=O)c2ccc(NC(=O)Nc3ccc(N(C)c4ccnc(Nc5ccc(CS(C)(=O)=O)cc5)n4)cc3)cc2)CC1`
Reply text: False

====

Provide the reported TGI of each item.
# Test system: T-47D breast
# Measurement Protocol: NCI tumour cell line growth inhibition, 48 h

Inquiry: Write down TGI measured for item COC(=O)c1ccccc1C1CN=NC12Cc1c(C)cc(C)cc1C2=O (stereo not given)
Reply text: > 100 µM

Inquiry: For the molecule CC12CN(CC[N+](C)(C)C)CC1(C)C1CCC2O1 (stereo not given) , give its measured TGI value.
Reply text: > 100 µM

Inquiry: Give me measured TGI, please, for this molecule: `COc1ccc(C)c2c1N[C@](C)([C@]1(C)Nc3c(OC)ccc(C)c3C1=O)C2=O`
Reply text: > 100 µM

Inquiry: Supply TGI value. Item: `COc1cc2c(c(OC)c1OC)-c1ccc(OC)c(=O)cc1[C@@H](NC(=O)CCl)CC2`
Reply text: > 59 µM

Inquiry: Look up and report measured TGI for this entry: `CC1=C(C)SC(=C2Sc3c(n(C)c(=O)[nH]c3=O)S2)S1`
Reply text: > 100 µM

Inquiry: Specify reported TGI for the molecule shown: c1ccc(N/N=C2\CC(c3ccccc3)Oc3ccccc32)cc1 (stereo not given)
Reply text: > 100 µM

Inquiry: Provide only the value of recorded TGI for `CN(CCc1ccc(Br)cc1)CCN1CCCCC1`
Reply text: > 100 µM

Inquiry: Check the records and state TGI for `CCOC(=O)/C(C#N)=C(/NS(=O)(=O)c1cc(C)c(Cl)cc1[S-])[n+]1ccc(N(C)C)cc1`
Reply text: > 100 µM

Inquiry: Supply reported TGI belonging to this molecule: `CC[C@H](C)c1occ2c(O)c(C(=O)O)c(=O)cc-2c1C`
Reply text: 56.4 µM

Inquiry: Report TGI for `CCCCCCCCCCCCCOC(=O)c1c(C)[nH]c(/C=C2\N=C(c3ccc[nH]3)C=C2OC)c1C`
Reply text: > 43.4 µM
